Reference source for all entries: the RNAGym collection of RNA variant scans (doi:10.1093/nar/gkz1192)

B1: CPEB3 Ribozyme (parent)
chain: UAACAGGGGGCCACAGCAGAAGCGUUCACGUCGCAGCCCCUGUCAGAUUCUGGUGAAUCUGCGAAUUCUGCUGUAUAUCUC

variants of: B1; assay: self-cleavage, relative activity (ratio to wild type); higher = more cleavage; in vitro, sequencing
measurement_name: self-cleavage
One number for each entry.

Some entries whose results are on file:
[[record]]
variant_label = "U31A A45U"
quantitative_result = 0.32

[[record]]
variant_label = "A18C U60C"
quantitative_result = 0.28

[[record]]
variant_label = "A15U U66C"
quantitative_result = 0.23

[[record]]
variant_label = "U51G A75U"
quantitative_result = 1.22

[[record]]
variant_label = "G16A C37U"
quantitative_result = 0.24

[[record]]
variant_label = "U66G C68U"
quantitative_result = 0.38


Would you mind listing self-cleavage for each of the following variants?
1. C40U G70U
2. C4U U69C
3. C34A U80C

// result
1: 0.16; 2: 0.86; 3: 0.34

Would you mind listing self-cleavage for each of the following variants?
1. A13G U74G
2. U25G U60C
3. A35U U41C
4. C44U G52U
5. C38U U54A
6. G46U U72C
7. U26C U74G

// result
1: 1.37; 2: 0.24; 3: 0.5; 4: 0.46; 5: 0.85; 6: 0.22; 7: 0.78

Would you mind listing self-cleavage for each of the following variants?
1. G8A A18U
2. G42A U78C
3. A3G A77G
4. A45C A64G
5. U67C C81U
6. U48C C59A
7. C44G A45U
8. A13G U78C

// result
0.07
0.21
1.03
0.32
0.37
0.19
0.13
0.94

Would you mind listing self-cleavage for each of the following variants?
1. C4U G52A
2. C40G U60A
3. G22C C62U

// result
1.26
0.11
0.16
